# test.system: T1, recombinant human PD-L1-His (human, UniProt Q9NZQ7 19-238)
# T1 construct: Analyte of the BLI assay; also called hPD-L1
# T1 sequence (Q9NZQ7 19-238): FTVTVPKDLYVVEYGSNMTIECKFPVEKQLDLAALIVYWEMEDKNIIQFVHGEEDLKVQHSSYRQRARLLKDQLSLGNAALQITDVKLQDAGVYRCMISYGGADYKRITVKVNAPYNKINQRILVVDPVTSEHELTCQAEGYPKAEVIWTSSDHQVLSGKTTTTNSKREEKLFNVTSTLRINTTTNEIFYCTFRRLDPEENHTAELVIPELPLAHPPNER
# assay.overview: BLI (Octet RED96), antibody captured on AHC biosensor, PD-L1-His in solution, 1:1 model;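 also: rates obtained by 1:1 Langmuir fitting of the binding response, using a 2.5 min association phase then a 5 min dissociation phase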
Reported kon is given for each of the following binders.
Your answer should be a plain number; it is taken to be in M⁻¹ s⁻¹.

PHS102.YT10H (antibody, human IgG1, kappa, N297A, V domains shown, full-length human IgG1-N297A / kappa) VH: EVQLVESGGGLVQPGGSLRLSCAASGFTISDAYIHWVRQAPGKGLEWVARIEPLSGRTDYADSVKGRFTISADTSKNTAYLQMNSLRAEDTAVYYCARAFSWFMDYWGQGTLVTVSS VL: DIQMTQSPSSLSASVGDRVTITCRAGQDVYKAVAWYQQKPGKAPKLLIYWSTNLYSGVPSRFSGSGSGTDFTLMISSLQPEDFATYYCQQHDKTPTTFGQGTKVEIKR    350000

# input for lookup
Incoming: Could you tell me which kon is on file for PHS102.YT6D (antibody, human IgG1, kappa, N297A, V domains shown) VH: EVQLVESGGGLVQPGGSLRLSCAASGFTISDGYIHWVRQAPGKGLEWVARIDPLTGRTMYADSVKGRFTISADTSKNTAYLQMNSLRAEDTAVYYCARAFSWWPDYWGQGTLVTVSS VL: DIQMTQSPSSLSASVGDRVTITCRAGQDVYKAVAWYQQKPGKAPKLLIYWSTNLYSGVPSRFSGSGSGTDFTLTISSLQPEDFATYYCQQIMSPPPTFGQGTKVEIKR ?
Outgoing: 330000

Recorded values, source patent US20230078173A1.
